assay.explanation: Volume of distribution at steady state in rat at 1 mg/kg, iv by LC-MS/MS analysis
Format: ADME, organism-based
details: in vivo, read-out: Vdss
assay.endpoint: Vd (L/kg)
Reply numerically in L/kg, unit not repeated.

Below are worked cases with known answers.
{"compound": "CNC(=O)c1c(-c2ccc(F)cc2)oc2cc(N(c3ccc(B(O)O)c(Cl)c3)S(C)(=O)=O)c(C3CC3)cc12", "quantitative.result": 1.1}
{"compound": "CNC(=O)c1c(-c2ccc(F)cc2)oc2cc(N(C3CCc4c(B(O)O)cccc43)S(C)(=O)=O)c(C3CC3)cc12 (stereo not given)", "quantitative.result": 3.5}
{"compound": "CNC(=O)c1c(-c2ccc(F)cc2)oc2cc(-n3ncnc3-c3ccc(B(O)O)c(F)c3)c(C3CC3)cc12", "quantitative.result": 0.9}
{"compound": "CNC(=O)c1c(-c2ccc(F)cc2)oc2cc(N3C(=O)OC[C@@H]3c3ccc(B(O)O)c(F)c3)c(C3CC3)cc12", "quantitative.result": 1.3}

Next item in the queue.
Lookup result for "CNC(=O)c1c(-c2ccc(F)cc2)oc2cc(-n3nccc3-c3ccc(B(O)O)c(F)c3)c(C3CC3)cc12" ; measured Vd: 1.3

###

measured.on: Cytochrome P450 3A4 (Homo sapiens)
Sequence (P08684 whole entry): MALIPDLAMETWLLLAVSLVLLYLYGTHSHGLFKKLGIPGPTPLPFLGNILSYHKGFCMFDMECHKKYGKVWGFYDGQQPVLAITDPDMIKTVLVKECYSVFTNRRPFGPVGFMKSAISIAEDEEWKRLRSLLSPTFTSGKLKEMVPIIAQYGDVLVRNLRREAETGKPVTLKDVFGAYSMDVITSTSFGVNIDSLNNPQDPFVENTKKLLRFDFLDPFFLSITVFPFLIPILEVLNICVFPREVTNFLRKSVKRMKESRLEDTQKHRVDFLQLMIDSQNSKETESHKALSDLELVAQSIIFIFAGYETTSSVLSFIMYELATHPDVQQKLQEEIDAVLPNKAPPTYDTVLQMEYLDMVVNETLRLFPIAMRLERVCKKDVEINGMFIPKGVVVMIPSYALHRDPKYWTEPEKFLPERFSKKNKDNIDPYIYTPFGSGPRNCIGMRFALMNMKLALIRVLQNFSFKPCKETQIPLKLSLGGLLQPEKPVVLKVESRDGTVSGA
assay.explanation: Inhibition of CYP3A4 in human liver microsomes using nifedipine as substrate preincubated for 7 mins followed by NADPH addition and measured by LC-MS/MS analysis
Format: ADME
Listed below: IC50 values for each entry.

{"compound.string": "CNC(=O)c1c(-c2ccc(F)cc2)oc2cc(-n3nccc3-c3ccc(B(O)O)c(F)c3)c(C3CC3)cc12", "assay.endpoint": "IC50", "result": "> 33 µM"}

Entry "CNC(=O)c1c(-c2ccc(F)cc2)oc2cc(-n3ncnc3-c3ccc(B(O)O)c(F)c3)c(C3CC3)cc12" , IC50 reported as > 33 µM

So, "CNC(=O)c1c(-c2ccc(F)cc2)oc2cc(N(c3cc(Cl)c4c(c3)COB4O)S(C)(=O)=O)c(C3CC3)cc12" ? Its IC50 was > 33 µM
